Documented inhibition at 1 µM across a set of molecules
ASSAY_TARGET: GST-tagged ROR gamma ligand binding domain (LBD) (Homo sapiens, UniProt P51449)
Construct: purchased Invitrogen
Sequence (P51449 269-508 limits assumed): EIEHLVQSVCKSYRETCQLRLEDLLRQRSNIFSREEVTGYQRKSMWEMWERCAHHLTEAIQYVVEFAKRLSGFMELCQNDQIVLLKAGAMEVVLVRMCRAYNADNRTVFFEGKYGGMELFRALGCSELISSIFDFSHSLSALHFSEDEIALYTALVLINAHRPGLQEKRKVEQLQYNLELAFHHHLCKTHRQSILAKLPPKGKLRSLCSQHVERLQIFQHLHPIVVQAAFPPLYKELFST
TEST_METHOD_NOTES: TR-FRET assay for ROR gamma (LanthaScreen co-activator peptide recruitment)
Format: biochemical
STATED_CONDITIONS: compound 1 μM; TR-FRET ratio 520/495, percent of control
Value expressed in %; do not type the unit.

Reference set, count: 6
* CCS(=O)(=O)c1ccc(CC(=O)Nc2ccc(OC(C)(C)c3ccc(C(F)(F)F)c(F)c3)cc2)cc1 | 70.9
* CCS(=O)(=O)c1ccc(CC(=O)Nc2ccc(OC3(c4ccc(F)cc4F)COC3)c(F)c2)cc1 | 81.1
* CCC(CC)(Oc1ccc(NC(=O)Cc2ccc(S(=O)(=O)CC)cc2)cc1)c1ccc(Cl)c(F)c1 | 73.9
* CCn1c(C(C)(C)Oc2ccc(NC(=O)Cc3ccc(S(=O)(=O)CC)cc3)cc2)nc2cc(Cl)ccc21 | 88.6
* CCS(=O)(=O)c1ccc(CC(=O)Nc2ccc(OC(C)(C)c3ccc(C(F)(F)F)cc3)cc2)cc1 | 86.5
* CCS(=O)(=O)c1ccc(CC(=O)Nc2ccc(C#CC(C)(C)Oc3ccc(F)c(F)c3F)cc2)cc1 | 76.2

Please give the measured inhibition at 1 µM for this molecule: CCS(=O)(=O)c1ccc(CC(=O)Nc2ccc(OC3(c4ccc(Cl)c(F)c4)CCCC3)cc2)cc1
84.8

====

ASSAY_TARGET: GST-tagged ROR gamma ligand binding domain (LBD) (Homo sapiens, UniProt P51449)
Construct: purchased Invitrogen
TEST_METHOD_NOTES: TR-FRET assay for ROR gamma (LanthaScreen co-activator peptide recruitment)
Format: biochemical
STATED_CONDITIONS: compound 1 μM; TR-FRET ratio 520/495, percent of control
Let's look at some compounds and their measured inhibition at 1 µM.
Report as a plain number; the unit % is understood.

State the recorded inhibition at 1 µM for this entry: CCS(=O)(=O)c1ccc(CC(=O)Nc2ccc(OC3(c4ccc(C(F)(F)F)c(F)c4)CCOCC3)cc2)cc1
78

Another: CCS(=O)(=O)c1ccc(CC(=O)Nc2ccc(OC(C)(C)Cn3ccc4cc(Cl)ccc43)cc2)cc1
80.3

Then what about the compound CCn1c(C(F)(F)Oc2ccc(NC(=O)Cc3ccc(S(=O)(=O)CC)cc3)cc2)nc2cc(Cl)ccc21 ?
74.4

Repeat with CCS(=O)(=O)c1ccc(CC(=O)Nc2ccc(OC3(c4ccc(Cl)cc4Cl)CCCCC3)c(F)c2)cc1
73.2

====

ASSAY_TARGET: GST-tagged ROR gamma ligand binding domain (LBD) (Homo sapiens, UniProt P51449)
Construct: purchased Invitrogen
TEST_METHOD_NOTES: TR-FRET assay for ROR gamma (LanthaScreen co-activator peptide recruitment)
Assay type: biochemical
STATED_CONDITIONS: compound 10 μM; TR-FRET ratio 520/495, percent of control
inhibition at 10 µM values for the compounds below.
API: value field is a number in %; no unit string.

Sample answers from the record:
- CCS(=O)(=O)c1ccc(CC(=O)Nc2ccc(OC(C)(C)c3ncc(Cl)cc3Cl)c(F)c2)cc1 [Example 95]: 77.6
- CCS(=O)(=O)c1ccc(CC(=O)Nc2ccc(OC3(c4ccc(F)cc4F)COC3)c(F)c2)cc1 [Example 142]: 81.5
- CCS(=O)(=O)c1ccc(CC(=O)Nc2ccc(OC(C)(C)Cn3ccc4cc(Cl)ccc43)c(F)c2)cc1 [Example 104]: 79.2
- CCS(=O)(=O)c1ccc(CC(=O)Nc2ccc(OC(C)(C)c3ccc(F)c(F)c3)cc2)cc1 [Example 1]: 74.3
- CCS(=O)(=O)c1ccc(CC(=O)Nc2ccc(OC(C)(C)c3ccc(Cl)cc3Cl)cc2)cc1 [Example 3]: 83.4
- CCS(=O)(=O)c1ccc(CC(=O)Nc2ccc(C#CC(C)(C)Oc3ccc(F)c(F)c3F)cc2)cc1 [Example 72]: 79.7
- CCn1c(C(C)(C)Oc2cc(F)ccc2F)nc2cc(NC(=O)Cc3ccc(S(=O)(=O)CC)cc3)ccc21 [Example 126]: 89.5
- CCS(=O)(=O)c1ccc(CC(=O)Nc2ccc(C#CC(C)(C)Oc3ccc(Cl)c(F)c3)cc2)cc1 [Example 66]: 87.5
- CCS(=O)(=O)c1ccc(CC(=O)Nc2ccc(OC(C)(C)c3ccc(F)cc3F)c(F)c2)cc1 [Example 107]: 59.5
- CCS(=O)(=O)c1ccc(CC(=O)Nc2ccc(C#CC(C)(C)Oc3ccc(Cl)cc3F)nc2)cc1 [Example 80]: 62.4

// switching to the query compound
Fill in: inhibition at 10 µM of CCn1c(C(C)(C)Oc2ccc(NC(=O)Cc3ccc(S(=O)(=O)CC)cc3)cc2F)nc2cc(F)ccc21 [Example 111] is ___
86.8

====

Readings of inhibition at 1 µM for the listed compounds
ASSAY_TARGET: GST-tagged ROR gamma ligand binding domain (LBD) (Homo sapiens, UniProt P51449)
Construct: purchased Invitrogen
TEST_METHOD_NOTES: TR-FRET assay for ROR gamma (LanthaScreen co-activator peptide recruitment)
Type: biochemical
STATED_CONDITIONS: compound 1 μM; TR-FRET ratio 520/495, percent of control
Experimental: The compounds described herein were screened for ROR gamma modulator activity using the TR-FRET assay by Lantha Screen as described in JBC 2011, 286, 26: 22707-10; and Drug Metabolism and Disposition 2009, 37, 10: 2069-78. […] Test compounds or reference compounds such as T0901317 (Calbiochem) were dissolved in dimethylsulfoxide (DMSO) to prepare 10.0 mM stock solutions and diluted to the desired concentration. […] The inhibition of test compound was calculated based on the TR-FRET ratio of 520/495. […]
The response must be a number in % with no trailing unit.

Some compounds with known inhibition at 1 µM results, for comparison:
- CCS(=O)(=O)c1ccc(CC(=O)Nc2ccc(C#CC(C)(C)Oc3ccc(Cl)cc3F)cc2)cc1: 83.9
- CCn1c(C(C)(C)Oc2ccc(Cl)cn2)nc2cc(NC(=O)Cc3ccc(S(=O)(=O)CC)cc3)ccc21: 78
- CCn1c(C(C)(C)Oc2ccc(F)c(F)c2F)nc2cc(NC(=O)Cc3ccc(S(=O)(=O)CC)cc3)ccc21: 90

Pending compound:
Recall the recorded inhibition at 1 µM for CCS(=O)(=O)c1ccc(CC(=O)Nc2ccc(OC(C)(C)c3ccc(Cl)cc3F)c(F)c2)cc1 with GST-tagged ROR gamma ligand binding domain (LBD) (Homo sapiens, UniProt P51449) and state it.
55

====

ASSAY_TARGET: GST-tagged ROR gamma ligand binding domain (LBD) (Homo sapiens)
Construct: purchased Invitrogen
TEST_METHOD_NOTES: TR-FRET assay for ROR gamma (LanthaScreen co-activator peptide recruitment)
Format: biochemical
STATED_CONDITIONS: compound 10 μM; TR-FRET ratio 520/495, percent of control
PROPERTY_LABEL: inhibition at 10 µM (%)
The figure you give is taken to be in %; do not add the unit.

* CCS(=O)(=O)c1ccc(CC(=O)Nc2ccc(C#CC(C)(C)Oc3ccc(F)cc3F)cc2)cc1 | 81.8
* CCS(=O)(=O)c1ccc(CC(=O)Nc2ccc(OC(C)(C)c3ccc(Cl)cc3Cl)nc2)cc1 | 86.7
* CCS(=O)(=O)c1ccc(CC(=O)Nc2ccc(OC(C)(C)c3ccc(Cl)cc3F)cc2)cc1 | 83.1
* CCS(=O)(=O)c1ccc(CC(=O)Nc2ccc(C#CC(C)(C)Oc3ccc(Cl)cc3F)cc2)cc1 | 88.2
* CCS(=O)(=O)c1ccc(CC(=O)Nc2ccc(C#CC(C)(C)Oc3ccc(C#N)cc3)cc2)cc1 | 86.1

Next, consider the following compound.
Looking for the measured inhibition at 10 µM of CCn1c(C(C)(C)Oc2ccc(F)c(F)c2)nc2cc(NC(=O)Cc3ccc(S(=O)(=O)CC)cc3)ccc21 , can you help?
95.5

====

ASSAY_TARGET: GST-tagged ROR gamma ligand binding domain (LBD) (Homo sapiens)
Sequence (P51449 269-508 limits assumed): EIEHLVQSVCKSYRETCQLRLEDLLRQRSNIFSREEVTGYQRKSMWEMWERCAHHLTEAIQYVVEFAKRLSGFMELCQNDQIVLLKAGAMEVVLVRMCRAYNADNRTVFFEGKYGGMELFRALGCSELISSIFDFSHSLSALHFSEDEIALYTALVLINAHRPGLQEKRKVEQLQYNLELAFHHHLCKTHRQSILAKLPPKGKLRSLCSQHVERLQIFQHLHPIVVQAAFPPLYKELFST
pIC50: −log10 of the molar value.
Listed next: entries and their corresponding pIC50.

Reported pIC50 for CCS(=O)(=O)c1ccc(CC(=O)Nc2ccc(C#CC(C)(C)Oc3ccc(OC(F)(F)F)cc3)cc2)cc1 : what is it?
> 7.30

Next: CCn1c(C(C)(C)Oc2ccc(F)c(F)c2)nc2cc(NC(=O)Cc3ccc(S(=O)(=O)CC)cc3)ccc21
> 7.30

Now the compound CCS(=O)(=O)c1ccc(CC(=O)Nc2ccc3c(c2)nc(C(C)(C)Oc2ccc(F)cc2F)n3CCF)cc1
> 7.30

Query CCn1c(C(C)(C)Oc2ccc(F)cc2F)nc2cc(NC(=O)Cc3ccc(S(=O)(=O)CC)cc3)ccc21 next
> 7.30

Here is the next compound: CCS(=O)(=O)c1ccc(CC(=O)Nc2ccc(C#CC(C)(C)Oc3ccc(F)c(F)c3F)cc2)cc1
> 7.30

Query CCS(=O)(=O)c1ccc(CC(=O)Nc2ccc(C#CC(C)(C)Oc3cc(F)c(F)cc3F)cc2)cc1 next
> 7.30

Same again, this time with CCS(=O)(=O)c1ccc(CC(=O)Nc2ccc3c(c2)nc(C(C)(C)Oc2ccc(F)cc2F)n3CC(C)C)cc1
< 7.00

Next up: CCS(=O)(=O)c1ccc(CC(=O)Nc2ccc(OC3(c4ccc(C(F)(F)F)c(F)c4)CCOCC3)cc2)cc1
< 7.00

Next record, please: CCS(=O)(=O)c1ccc(CC(=O)Nc2ccc(C#CC(C)(C)Oc3c(F)cc(F)cc3F)cc2)cc1
> 7.30

Origin of measurements: patent US9718817B2
